Listed next: entries and their corresponding GI50.
System: P388/ADR
Assay: cells
Format: functional
Details: Mus musculus
Active and inactive are the calls of the source. Rule as the data show it: active = GI50 up to about 1.1 µM and inactive = higher.

Here is how some compounds turned out for GI50.
COMPOUND: CCCCCCCCCCCCCCCCCCOCC(O)CO (centres undefined)
OBSERVED: 9.82 µM (inactive)

COMPOUND: O=P(NCCCO)(OCc1ccccc1)N(CCCl)CCCl (centres undefined)
OBSERVED: > 100 µM (inactive)

COMPOUND: CN1CCC23c4ccccc4NC1C21CCN(C)C3Nc2ccccc21
OBSERVED: > 254 µM (inactive)

Okay, next one:
Quick check: GI50 on P388/ADR, item Nc1ncnc2c1ncn2C1OC(CO)C(O)C1O (centres undefined) ?
14.5 µM (inactive)
